Assay: Solubility of the compound in water at 20 mg/ml
Type: physicochemical
Conditions: buffer
Where a SMILES comes first, the peptide text is derived from it. [ ]: non-standard residue; d: D form. Phe(3-F) = N[C@@H](Cc1cccc(F)c1)C(=O)O; Arg(Me) = CNC(=N)NCCC[C@H](N)C(=O)O; Aib = CC(C)(N)C(=O)O; azaGly = NNC(=O)O

- COMPOUND: "CNC(=N)NCCC[C@H](NC(=O)[C@H](CC(C)C)NC(=O)NNC(=O)[C@H](Cc1ccccc1)NC(=O)[C@@H](NC(=O)[C@H](CC(N)=O)NC(=O)CNC(=O)[C@@H](Cc1ccc(O)cc1)NC(C)=O)[C@@H](C)O)C(=O)N[C@@H](Cc1c[nH]c2ccccc12)C(N)=O (Ac-[dY]GNTF[azaGly]L[Arg(Me)]W-NH2)"
  solubility: "Soluble"
- COMPOUND: "CNC(=N)NCCC[C@H](NC(=O)[C@H](CC(C)C)NC(=O)NNC(=O)[C@H](Cc1ccccc1)NC(=O)[C@@H](NC(=O)[C@H](CC(N)=O)NC(=O)C(C)(C)NC(=O)[C@@H](Cc1ccc(O)cc1)NC(C)=O)[C@@H](C)O)C(=O)N[C@@H](Cc1c[nH]c2ccccc12)C(N)=O (Ac-[dY][Aib]NTF[azaGly]L[Arg(Me)]W-NH2)"
  solubility: "Soluble"
- COMPOUND: "CNC(=N)NCCC[C@H](NC(=O)[C@H](CC(C)C)NC(=O)NNC(=O)[C@H](Cc1ccccc1)NC(=O)[C@@H](NC(=O)[C@H](CC(N)=O)NC(=O)[C@@H](Cc1c[nH]c2ccccc12)NC(=O)[C@@H](Cc1ccc(O)cc1)NC(C)=O)[C@@H](C)O)C(=O)N[C@@H](Cc1c[nH]c2ccccc12)C(N)=O"
  solubility: "Soluble"
- COMPOUND: "CNC(=N)NCCC[C@H](NC(=O)[C@H](CC(C)C)NC(=O)NNC(=O)[C@H](Cc1ccccc1)NC(=O)[C@@H](NC(=O)[C@H](CC(N)=O)NC(=O)[C@H](Cc1c[nH]c2ccccc12)NC(=O)[C@@H](Cc1ccc(O)cc1)NC(C)=O)[C@@H](C)O)C(=O)N[C@@H](Cc1c[nH]c2ccccc12)C(N)=O"
  solubility: "Insoluble"
- COMPOUND: "CNC(=N)NCCC[C@H](NC(=O)[C@H](CC(C)C)NC(=O)NNC(=O)[C@H](Cc1cccc(F)c1)NC(=O)[C@@H](NC(=O)[C@H](CC(N)=O)NC(=O)[C@H](CCCCN)NC(=O)[C@@H](Cc1ccc(O)cc1)NC(C)=O)[C@@H](C)O)C(=O)N[C@@H](Cc1c[nH]c2ccccc12)C(N)=O (Ac-[dY]KNT[Phe(3-F)][azaGly]L[Arg(Me)]W-NH2)"
  solubility: "Soluble"
- COMPOUND: "CNC(=N)NCCC[C@H](NC(=O)[C@H](CC(C)C)NC(=O)NNC(=O)[C@H](Cc1ccccc1)NC(=O)[C@@H](NC(=O)[C@H](CC(N)=O)NC(=O)[C@@H]1C[C@@H](O)CN1C(=O)[C@@H](Cc1ccc(O)cc1)NC(C)=O)[C@@H](C)O)C(=O)N[C@@H](Cc1c[nH]c2ccccc12)C(N)=O"
  solubility: "Soluble"
- COMPOUND: "CNC(=N)NCCC[C@H](NC(=O)[C@H](CC(C)C)NC(=O)NNC(=O)[C@H](Cc1cccc(F)c1)NC(=O)[C@@H](NC(=O)[C@H](CC(N)=O)NC(=O)[C@H](CCC(=O)O)NC(=O)[C@@H](Cc1ccc(O)cc1)NC(C)=O)[C@@H](C)O)C(=O)N[C@@H](Cc1c[nH]c2ccccc12)C(N)=O (Ac-[dY]ENT[Phe(3-F)][azaGly]L[Arg(Me)]W-NH2)"
  solubility: "Insoluble"

---

EC50 overview
Target: KiSS-1 receptor (Rattus norvegicus, UniProt Q924U1)
Sequence (Q924U1 whole entry): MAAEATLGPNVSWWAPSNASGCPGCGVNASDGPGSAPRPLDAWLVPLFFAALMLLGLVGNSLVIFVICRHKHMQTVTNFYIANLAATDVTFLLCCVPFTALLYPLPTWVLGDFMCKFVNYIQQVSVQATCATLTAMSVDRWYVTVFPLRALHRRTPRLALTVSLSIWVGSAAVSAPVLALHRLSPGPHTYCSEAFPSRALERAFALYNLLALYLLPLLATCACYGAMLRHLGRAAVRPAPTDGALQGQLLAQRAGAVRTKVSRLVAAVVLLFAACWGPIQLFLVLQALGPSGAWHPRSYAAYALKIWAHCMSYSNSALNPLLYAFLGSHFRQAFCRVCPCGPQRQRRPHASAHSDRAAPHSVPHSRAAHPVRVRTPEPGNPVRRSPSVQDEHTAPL
Assay: Agonist activity at rat KISS1R expressed in CHO/dhfr cells assessed as increase in intracellular Ca2+ levels measured for 180 secs by Fluo 3-AM dye based FLIPR assay
Where a SMILES comes first, the peptide text is derived from it. [ ]: non-standard residue; d: D form. Phe(3-F) = N[C@@H](Cc1cccc(F)c1)C(=O)O; Arg(Me) = CNC(=N)NCCC[C@H](N)C(=O)O; Aib = CC(C)(N)C(=O)O; azaGly = NNC(=O)O

- MOLECULE: "CNC(=N)NCCC[C@H](NC(=O)[C@H](CC(C)C)NC(=O)NNC(=O)[C@H](Cc1cccc(F)c1)NC(=O)[C@@H](NC(=O)[C@H](CC(N)=O)NC(=O)[C@H](CCCCN)NC(=O)[C@@H](Cc1ccc(O)cc1)NC(C)=O)[C@@H](C)O)C(=O)N[C@@H](Cc1c[nH]c2ccccc12)C(N)=O (Ac-[dY]KNT[Phe(3-F)][azaGly]L[Arg(Me)]W-NH2)"
  EC50: "7.1 nM"
- MOLECULE: "CNC(=N)NCCC[C@H](NC(=O)[C@H](CC(C)C)NC(=O)NNC(=O)[C@H](Cc1ccccc1)NC(=O)[C@@H](NC(=O)[C@H](CC(N)=O)NC(=O)[C@@H](C)NC(=O)[C@@H](Cc1ccc(O)cc1)NC(C)=O)[C@@H](C)O)C(=O)N[C@@H](Cc1c[nH]c2ccccc12)C(N)=O"
  EC50: "16 nM"
- MOLECULE: "CNC(=N)NCCC[C@H](NC(=O)[C@H](CC(C)C)NC(=O)NNC(=O)[C@H](Cc1ccccc1)NC(=O)[C@@H](NC(=O)[C@H](CC(N)=O)NC(=O)C(C)(C)NC(=O)[C@@H](Cc1ccc(O)cc1)NC(C)=O)[C@@H](C)O)C(=O)N[C@@H](Cc1c[nH]c2ccccc12)C(N)=O (Ac-[dY][Aib]NTF[azaGly]L[Arg(Me)]W-NH2)"
  EC50: "17 nM"

---

Assay: Cmax in Sprague-Dawley rat plasma at 1 mg/kg, sc by LC/MS analysis
Type: ADME, organism-based
Set-up: dose 1 mg/kg, route subcutaneous
Where a SMILES comes first, the peptide text is derived from it. [ ]: non-standard residue; d: D form. Phe(3-F) = N[C@@H](Cc1cccc(F)c1)C(=O)O; Arg(Me) = CNC(=N)NCCC[C@H](N)C(=O)O; azaGly = NNC(=O)O

- MOLECULE: "CNC(=N)NCCC[C@H](NC(=O)[C@H](CC(C)C)NC(=O)NNC(=O)[C@H](Cc1ccccc1)NC(=O)[C@@H](NC(=O)[C@H](CC(N)=O)NC(=O)[C@@H](Cc1c[nH]c2ccccc12)NC(=O)[C@@H](Cc1ccc(O)cc1)NC(C)=O)[C@@H](C)O)C(=O)N[C@@H](Cc1c[nH]c2ccccc12)C(N)=O"
  Cmax [ng/mL]: 100
- MOLECULE: "CNC(=N)NCCC[C@H](NC(=O)[C@H](CC(C)C)NC(=O)NNC(=O)[C@H](Cc1ccccc1)NC(=O)[C@@H](NC(=O)[C@H](CC(N)=O)NC(=O)[C@@H]1C[C@@H](O)CN1C(=O)[C@@H](Cc1ccc(O)cc1)NC(C)=O)[C@@H](C)O)C(=O)N[C@@H](Cc1c[nH]c2ccccc12)C(N)=O"
  Cmax [ng/mL]: 342
- MOLECULE: "CNC(=N)NCCC[C@H](NC(=O)[C@H](CC(C)C)NC(=O)NNC(=O)[C@H](Cc1cccc(F)c1)NC(=O)[C@@H](NC(=O)[C@H](CC(N)=O)NC(=O)[C@H](CCC(=O)O)NC(=O)[C@@H](Cc1ccc(O)cc1)NC(C)=O)[C@@H](C)O)C(=O)N[C@@H](Cc1c[nH]c2ccccc12)C(N)=O (Ac-[dY]ENT[Phe(3-F)][azaGly]L[Arg(Me)]W-NH2)"
  Cmax [ng/mL]: 703

---

Target: KiSS-1 receptor (Homo sapiens, UniProt Q969F8)
Sequence (Q969F8 whole entry): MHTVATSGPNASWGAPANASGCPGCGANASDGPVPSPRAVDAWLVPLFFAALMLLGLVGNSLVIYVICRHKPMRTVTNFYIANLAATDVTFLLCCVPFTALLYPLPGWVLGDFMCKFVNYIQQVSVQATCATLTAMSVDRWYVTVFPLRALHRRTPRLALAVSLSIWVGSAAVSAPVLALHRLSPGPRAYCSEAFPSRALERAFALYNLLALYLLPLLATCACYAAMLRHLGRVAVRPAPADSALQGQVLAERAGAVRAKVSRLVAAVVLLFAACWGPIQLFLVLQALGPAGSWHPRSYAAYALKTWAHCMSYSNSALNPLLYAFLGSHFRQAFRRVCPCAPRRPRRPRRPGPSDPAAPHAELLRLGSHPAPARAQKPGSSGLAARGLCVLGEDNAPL
Experiment: Agonist activity at human KISS1R expressed in CHO/dhfr cells assessed as increase in intracellular Ca2+ levels measured for 180 secs by Fluo 3-AM dye based FLIPR assay
Where a SMILES comes first, the peptide text is derived from it. [ ]: non-standard residue; d: D form. Arg(Me) = CNC(=N)NCCC[C@H](N)C(=O)O; NMeA = CN[C@@H](C)C(=O)O; Aze = O=C(O)[C@@H]1CCN1; azaGly = NNC(=O)O
Each entry below lists one item and its recorded EC50 value.

- COMPOUND: "CNC(=N)NCCC[C@H](NC(=O)[C@H](CC(C)C)NC(=O)NNC(=O)[C@H](Cc1ccccc1)NC(=O)[C@@H](NC(=O)[C@H](CC(N)=O)NC(=O)[C@H](C)N(C)C(=O)[C@@H](Cc1ccc(O)cc1)NC(C)=O)[C@@H](C)O)C(=O)N[C@@H](Cc1c[nH]c2ccccc12)C(N)=O (Ac-[dY][NMeA]NTF[azaGly]L[Arg(Me)]W-NH2)"
  READING_UNIT: "nM"
  EC50: 4.4
- COMPOUND: "CNC(=N)NCCC[C@H](NC(=O)[C@H](CC(C)C)NC(=O)NNC(=O)[C@H](Cc1ccccc1)NC(=O)[C@@H](NC(=O)[C@H](CC(N)=O)NC(=O)[C@@H]1CCN1C(=O)[C@@H](Cc1ccc(O)cc1)NC(C)=O)[C@@H](C)O)C(=O)N[C@@H](Cc1c[nH]c2ccccc12)C(N)=O (Ac-[dY][Aze]NTF[azaGly]L[Arg(Me)]W-NH2)"
  READING_UNIT: "nM"
  EC50: 1.9
- COMPOUND: "CNC(=N)NCCC[C@H](NC(=O)[C@H](CC(C)C)NC(=O)NNC(=O)[C@H](Cc1ccccc1)NC(=O)[C@@H](NC(=O)[C@H](CC(N)=O)NC(=O)[C@@H](CCCCN)NC(=O)[C@@H](Cc1ccc(O)cc1)NC(C)=O)[C@@H](C)O)C(=O)N[C@@H](Cc1c[nH]c2ccccc12)C(N)=O"
  READING_UNIT: "nM"
  EC50: 3.6
